# Lookup of reported melting point keyed by entry

Examples with answers:
> print(dat)
                                   molecule  assayendpoint  observedmeasurement
1  CN(C)CCOc1nccc(-c2c(-c3ccc(F)cc3)ncn2C2CCC(=O)CC2)n1  melting point          84 to 86 °C
2  O=C(N[C@@H](CSC(=O)OCc1ccccc1)C(=O)O)OCc1ccccc1  melting point          93 to 94 °C
3  CC(C)(C)c1cc(CCC2NC(=O)NC2=O)cc(C(C)(C)C)c1O (stereo unspecified)  melting point        207 to 208 °C
4                       CS(C)=Nc1cnc(Cl)cn1  melting point        119 to 120 °C
5              Cc1cccc2nc(C)n(-c3ccccc3)c12  melting point        107 to 109 °C
6  CCCCCCCCCCCCCCCCCNC(=O)OCCOCCOC(=O)NCc1ccccn1  melting point          91 to 92 °C
7          CCOC(=O)N1CCc2nc3ccccc3c(C)c2CC1  melting point               125 °C
8  CN1C(=O)CN(C(=O)CNC(=O)OCc2ccccc2)C(c2ccccc2)c2cc(Cl)ccc21 (stereo unspecified)  melting point        158 to 160 °C

Any idea what its melting point is? The molecule is COCCOCOc1ccc(-c2nnc(S)o2)cc1OCOCCOC
84 °C

Any idea what its melting point is? The molecule is COc1ccc(Oc2c(-c3ccc(S(C)(=O)=O)cc3)cnn(CC(F)(F)F)c2=O)cc1
194 to 195 °C

Any idea what its melting point is? The molecule is CC(=O)N1c2ccc(F)cc2CC1C#N (stereo unspecified)
93 to 95 °C

Any idea what its melting point is? The molecule is Cc1nc(C(=O)Nc2cccc(Oc3ccc4nc(NC(=O)C5CC5)cn4n3)c2)c(C)o1
224 °C

Any idea what its melting point is? The molecule is CS(=O)(=O)c1ccc(-c2cc(=O)n(CC(=O)c3ccccc3)nc2-c2ccc(F)cc2)cc1
178 to 180 °C

Any idea what its melting point is? The molecule is COc1ccccc1Oc1c(NS(=O)(=O)c2ccc(C)cn2)nc(N2CCOCC2)nc1OCCO
195 to 196 °C

Any idea what its melting point is? The molecule is CCS(=O)c1ccc(-c2coc3ccc(-c4nnc(C)o4)cc23)c(Cl)c1 (stereo unspecified)
151 to 152 °C

Any idea what its melting point is? The molecule is C=C(Cc1ccccc1)C(=O)NCC(=O)O
82 °C

Any idea what its melting point is? The molecule is CC(C)C(NS(=O)(=O)c1ccccc1)C(=O)NO (stereo unspecified)
154 to 155 °C

Any idea what its melting point is? The molecule is O=[N+]([O-])c1ccc(-c2cc3c(Nc4ccc(Cl)cc4F)ncnc3o2)cc1
174 to 177 °C

Any idea what its melting point is? The molecule is C[C@@H](Cc1cc(F)cc2ccoc12)NC(=O)OC(C)(C)C
120 to 121 °C

Any idea what its melting point is? The molecule is c1ccc(CSc2nc3cc4ccccc4cc3[nH]2)nc1
170 °C

Any idea what its melting point is? The molecule is O=C1NCCN1Cc1ccc2ccccc2c1
149 to 152 °C

* * *

# Lookup of reported melting point keyed by entry

Examples with answers:
> print(dat)
                                   compound  observedmeasurement
1  CCOCn1c(-c2ccc(Cl)cc2)c(C#N)c(Sc2ccc(Cl)c(Cl)c2)c1C(F)(F)F          75 to 77 °C
2  CCc1nc2c(-c3ccc(Cl)cc3Cl)nccn2c1C(C)O (stereo not given)        165 to 166 °C
3  ICCCCCOc1ccc(C2=C(c3ccccc3)CCCc3ccccc32)cc1        104 to 106 °C
4                    Nc1cccc2c(=O)[nH]ccc12        258 to 259 °C
5  CN1CC(C(=O)NCc2cccnc2)CC2c3cccc4c3c(cn4C)CC21 (stereo not given)        185 to 187 °C
6  CCc1nc2c(n1Cc1ccc(OC)cc1)C(=O)N(C)CN2c1ccc(Cl)cc1Cl        116 to 118 °C
7  CCOC(=O)CCCOc1cccc(Oc2nc(OC)cc(OC)n2)c1C=O                96 °C
8             Cc1cc(Cl)ccc1OCc1nn(C)c(=O)o1        108 to 110 °C

Any idea what its melting point is? The compound is CC(C)(C)C(=O)OCOC(=O)C1N2C(=O)C(NC(=O)C(N)c3ccccc3)C2SC1(C)C (stereo not given)
114 to 116 °C

Any idea what its melting point is? The compound is CCCCCc1c(C(C)C)nc(C(C)C)c(CO)c1-c1cccc(O)c1
121 to 122 °C

* * *

# Lookup of reported melting point keyed by entry
All answers are understood in °C, so give the number only.

Examples with answers:
> print(dat)
                                   molecule  observedmeasurement
1  CC1CC2C3CCC4=CC(=O)CCC4(C)C3(F)C(O)CC2(C)C1C(=O)CC#N (stereo not given)                  224
2  O=C(Nc1ccccc1S(=O)(=O)c1ccccc1)N[C@@H](Cc1ccc(Nc2nccc3cnccc23)cc1)C(=O)O                  192

Any idea what its melting point is? The molecule is CCOC(=O)C1=C(C)Nc2nc(N(C)C)nc(N)c2C1c1ccccc1C(F)(F)F (stereo not given)
210

* * *

# Lookup of reported melting point keyed by entry

Examples with answers:
> print(dat)
                                   compound  assayendpoint  observedmeasurement
1                COC(=O)c1cc(I)c(F)c(I)c1Cl  melting point               155 °C
2                  C=CCn1nc(C)c(CC(=O)O)c1C  melting point        139 to 140 °C
3                O=C(O)c1ccccc1Nc1ccc(I)cc1  melting point        205 to 206 °C
4  CCC(NC(=O)c1ccc(Cl)cc1)NC(=NC#N)Nc1cccnc1 (configuration not stated)  melting point        181 to 183 °C
5                 CCC(=O)NCc1c[nH]c2ccccc12  melting point          91 to 92 °C
6             O=C1CCC(O)(c2ccc(F)c(F)c2)CC1  melting point          84 to 85 °C

Any idea what its melting point is? The compound is COc1cccc2c1CN(Cc1c[nH]c3ccccc13)C2
176 to 179 °C

Any idea what its melting point is? The compound is CCOC(C)Oc1cnc(C(C)C)nc1O (configuration not stated)
70 °C

Any idea what its melting point is? The compound is CN(C)CCSc1ccc2nccn2n1
52 to 54 °C

Any idea what its melting point is? The compound is CCOc1c(OC)cccc1-c1nc2ccc(C(=O)Cl)cc2c(=O)[nH]1
93 to 94 °C

Any idea what its melting point is? The compound is CNc1ccc(-c2nc3ccc(F)cc3s2)cc1
154 °C

Any idea what its melting point is? The compound is CC(=O)c1cc(OCc2ccccc2)cc2c1OC(C)(C)C(=O)N2
148 to 150 °C

* * *

# Lookup of reported melting point keyed by entry

> print(dat)
                                   compound  observedmeasurement
1  O=c1ccn(-c2cccc(Oc3nc4ccccc4[nH]3)c2)nc1-c1ccnn1-c1ccccc1        149 to 150 °C
2  O=C(N1CC(CCl)c2c1ccc1ccccc21)C(F)(F)F (stereo not given)               185 °C

Any idea what its melting point is? The compound is N#Cc1c2c(c3c(c1N1CCCC1)Cc1ccccc1-3)-c1ccccc1C2
206 to 208 °C

Any idea what its melting point is? The compound is CC(=CC(=O)O)CCCCCCCCCCCCC(=O)O
77 °C

Any idea what its melting point is? The compound is CCOCc1nc2c(N)nc(C)c(C)c2n1CCC1CCN(C(=O)N2CCOCC2)CC1
158 to 160 °C

* * *

# Lookup of reported melting point keyed by entry

Examples with answers:
> print(dat)
                                    compound  assayendpoint  observedmeasurement
 1                        O=C(O)C(=O)c1ccsc1  melting point                63 °C
 2      CC(C)(C)C(=O)c1c[nH]c2ncc(C3CC3)nc12  melting point        266 to 268 °C
 3  O=C(NC(c1ccccc1)C(O)C(=O)OCc1ccccc1)c1ccccc1 (stereo unspecified)  melting point        129 to 131 °C
 4              CS(=O)(=O)Nc1ccc2ncnc(N)c2c1  melting point        287 to 290 °C
 5            Cc1ccc(-n2nc(C)c(C(=O)O)n2)cc1  melting point        230 to 232 °C
 6  CC#CC(C)(C)NC(=O)C(COC)Oc1ccc2ccncc2c1 (stereo unspecified)  melting point        155 to 156 °C
 7            Cc1c(CCO)c(=O)oc2cc(O)cc(O)c12  melting point        243 to 245 °C
 8       CSc1cc(CO)cc(S(N)(=O)=O)c1Cc1ccccc1  melting point        190 to 192 °C
 9    CC1(C)N=C(c2ccccc2F)c2cc(C#N)ccc2NC1=O  melting point               206 °C
10               CCNC(=N)NC(=O)Cc1cccc(OC)c1  melting point        108 to 110 °C

Any idea what its melting point is? The compound is COc1ccc(CN2C(=O)N([C@H](C)c3ccccc3)[C@H]3COC(=O)[C@H]32)cc1
146 °C

Any idea what its melting point is? The compound is CCCc1nn(-c2ccc(C(F)(F)F)cn2)cc1CCCOc1ccc(CC(=O)O)c(OC)c1
135 to 136 °C
